Data provenance: patent US20250136722A1

target: CHOK1 cells engineered to overexpress human CCR2 (Homo sapiens, UniProt P41597); construct: expressed in transfected cells; host or cells: CHOK1 cells; test: Antibody dependent cellular cytotoxicity (ADCC) reporter assay (Example 199); type: cell-based; settings: with anti-cotinine antibody SEQ ID NO: 11/12; CHOK1-human CCR2 target cells, Jurkat FcγRIIIa NFAT-luciferase reporter cells; 12-18 hours; read-out: ADCC Reporter Assay pEC50 (converted)
VALUE_KIND: log10 EC50 (log10 of the value in nM)

[
  {
    "STRUCTURE_SMILES": "CC(C)N(C)[C@@H]1CC[C@H](N2CC[C@H](Nc3ncnc4ccc(C(F)(F)F)cc34)C2=O)[C@H](NC(=O)[C@H]2CC[C@@H](NC(=O)CCO[C@H]3CC[C@H](OCCNC(=O)[C@H]4CC(=O)N(C)[C@@H]4c4cccnc4)CC3)CC2)C1",
    "OBSERVED_MEASUREMENT": -0.40
  },
  {
    "STRUCTURE_SMILES": "CC(C)N(C)[C@@H]1CC[C@H](N2CC[C@H](Nc3ncnc4ccc(C(F)(F)F)cc34)C2=O)[C@H](NC(=O)c2ccc([C@H]3CC[C@@H](C(=O)NCCOCCOCCNC(=O)[C@H]4CC(=O)N(C)[C@@H]4c4cccnc4)CC3)cc2)C1",
    "OBSERVED_MEASUREMENT": 0.70
  },
  {
    "STRUCTURE_SMILES": "CC(C)N(C)[C@@H]1CC[C@H](N2CC[C@H](Nc3ncnc4ccc(C(F)(F)F)cc34)C2=O)[C@H](NC(=O)[C@H]2CC[C@@H](NC(=O)COCCNC(=O)CCOCCNC(=O)[C@H]3CC(=O)N(C)[C@@H]3c3cccnc3)CC2)C1",
    "OBSERVED_MEASUREMENT": 0.15
  },
  {
    "STRUCTURE_SMILES": "CC(C)N(C)[C@@H]1CC[C@H](N2CC[C@H](Nc3ncnc4ccc(C(F)(F)F)cc34)C2=O)[C@H](NC(=O)[C@H]2C[C@H](NC(=O)CCO[C@H]3CC[C@H](OCCNC(=O)[C@H]4CC(=O)N(C)[C@@H]4c4cccnc4)CC3)C2)C1",
    "OBSERVED_MEASUREMENT": -0.50
  },
  {
    "STRUCTURE_SMILES": "CC(C)N(C)[C@@H]1CC[C@H](N2CC[C@H](Nc3ncnc4ccc(C(F)(F)F)cc34)C2=O)[C@H](NC(=O)c2cnn(C3CCN(C(=O)CCCCCCCCCCNC(=O)[C@H]4CC(=O)N(C)[C@@H]4c4cccnc4)CC3)c2)C1",
    "OBSERVED_MEASUREMENT": -0.10
  },
  {
    "STRUCTURE_SMILES": "CC(C)N(C)[C@@H]1CC[C@H](N2CC[C@H](Nc3ncnc4ccc(C(F)(F)F)cc34)C2=O)[C@H](NC(=O)[C@H]2C[C@H](NC(=O)CCOCCNC(=O)CCOCCNC(=O)[C@@H]3CC(=O)N(C)[C@H]3c3cccnc3)C2)C1",
    "OBSERVED_MEASUREMENT": 0.60
  },
  {
    "STRUCTURE_SMILES": "CC(C)N(C)[C@@H]1CC[C@H](N2CC[C@H](Nc3ncnc4ccc(C(F)(F)F)cc34)C2=O)[C@H](NC(=O)[C@H]2CC[C@@H](NC(=O)CNC(=O)COCCOCCNC(=O)[C@H]3CC(=O)N(C)[C@@H]3c3cccnc3)CC2)C1",
    "OBSERVED_MEASUREMENT": -0.28
  },
  {
    "STRUCTURE_SMILES": "CC(C)N(C)[C@@H]1CC[C@H](N2CC[C@H](Nc3ncnc4ccc(C(F)(F)F)cc34)C2=O)[C@H](NC(=O)[C@H]2CC[C@@H](N3CCN(CCCCCCCCNC(=O)[C@H]4CC(=O)N(C)[C@@H]4c4cccnc4)CC3)CC2)C1",
    "OBSERVED_MEASUREMENT": 0.20
  },
  {
    "STRUCTURE_SMILES": "CC(C)N(C)[C@@H]1CC[C@H](N2CC[C@H](Nc3ncnc4ccc(C(F)(F)F)cc34)C2=O)[C@H](NC(=O)[C@H]2CC[C@H](NC(=O)CCCOCCCCOCCNC(=O)[C@H]3CC(=O)N(C)[C@@H]3c3cccnc3)CC2)C1",
    "OBSERVED_MEASUREMENT": 0.72
  },
  {
    "STRUCTURE_SMILES": "CC(C)N(C)[C@@H]1CC[C@H](N2CC[C@H](Nc3ncnc4ccc(C(F)(F)F)cc34)C2=O)[C@H](NC(=O)[C@H]2CC[C@H](NC(=O)CCOC[C@H]3CC[C@H](COCCNC(=O)[C@H]4CC(=O)N(C)[C@@H]4c4cccnc4)CC3)CC2)C1",
    "OBSERVED_MEASUREMENT": 0.88
  },
  {
    "STRUCTURE_SMILES": "CN1C(=O)C[C@H](C(=O)NCCOCC(=O)NCCOCC(=O)N[C@H]2CC[C@@H](C(=O)N[C@@H]3C[C@H](NC(C)(C)C)CC[C@@H]3N3CC[C@H](Nc4ncnc5ccc(C(F)(F)F)cc45)C3=O)CC2)[C@H]1c1cccnc1",
    "OBSERVED_MEASUREMENT": 0.08
  },
  {
    "STRUCTURE_SMILES": "CC(C)N(C)[C@@H]1CC[C@H](N2CC[C@H](Nc3ncnc4ccc(C(F)(F)F)cc34)C2=O)[C@H](NC(=O)COCCNC(=O)CCNC(=O)CCOCCOCCNC(=O)[C@H]2CC(=O)N(C)[C@@H]2c2cccnc2)C1",
    "OBSERVED_MEASUREMENT": -0.17
  },
  {
    "STRUCTURE_SMILES": "CC(C)N(C)[C@@H]1CC[C@H](N2CC[C@H](Nc3ncnc4ccc(C(F)(F)F)cc34)C2=O)[C@H](NC(=O)[C@H]2CC[C@@H](NC(=O)CCOCCNC(=O)CCOCCCNC(=O)[C@H]3CC(=O)N(C)[C@@H]3c3cccnc3)CC2)C1",
    "OBSERVED_MEASUREMENT": -0.56
  },
  {
    "STRUCTURE_SMILES": "CC(C)N(C)[C@@H]1CC[C@H](N2CC[C@H](Nc3ncnc4ccc(C(F)(F)F)cc34)C2=O)[C@H](NC(=O)C2CCN(C3CCN(C4CCN(CCCCNC(=O)[C@H]5CC(=O)N(C)[C@@H]5c5cccnc5)CC4)CC3)CC2)C1",
    "OBSERVED_MEASUREMENT": -0.30
  },
  {
    "STRUCTURE_SMILES": "CC(C)N(C)[C@@H]1CC[C@H](N2CC[C@H](Nc3ncnc4ccc(C(F)(F)F)cc34)C2=O)[C@H](NC(=O)CCOCCOCCNC(=O)CCOCCOCCNC(=O)[C@H]2CC(=O)N(C)[C@@H]2c2cccnc2)C1",
    "OBSERVED_MEASUREMENT": 0.40
  },
  {
    "STRUCTURE_SMILES": "CC(C)N(C)[C@@H]1CC[C@H](N2CC[C@H](Nc3ncnc4ccc(C(F)(F)F)cc34)C2=O)[C@H](NC(=O)CCOCCN2CCC3(CCC(C(=O)NCCNC(=O)[C@H]4CC(=O)N(C)[C@@H]4c4cccnc4)CC3)CC2)C1",
    "OBSERVED_MEASUREMENT": -0.40
  }
]
